- testedSystem: eYfnI (YfnI) (Bacillus subtilis)
- Construct: extracellular catalytic domain (borders not given), N-terminal 6His tag removed by AcTEV; E. coli Rosetta; pProEX-eYfnI
- assayText: thermal shift titration (SYPRO Orange), Hill fit
- appliedConditions: read-out: Apparent KD
- Excerpt: thermal shift titration (SYPRO Orange), Hill fit on eYfnI (YfnI)
pKd: −log10 of the molar value.
quantityMeasured: pKd

INSERT INTO assay_data (compound, valuereported) VALUES
  ('O=P(O)(O)OCC(O)CO (stereo not shown)', 2.54);

* * *

- testedSystem: eYfnI (YfnI) (Bacillus subtilis, UniProt Q797B3, T297A)
- Construct: extracellular catalytic domain (borders not given), N-terminal 6His tag removed by AcTEV; E. coli Rosetta; pProEX-eYfnI
- Sequence (Q797B3 215-639 T297A): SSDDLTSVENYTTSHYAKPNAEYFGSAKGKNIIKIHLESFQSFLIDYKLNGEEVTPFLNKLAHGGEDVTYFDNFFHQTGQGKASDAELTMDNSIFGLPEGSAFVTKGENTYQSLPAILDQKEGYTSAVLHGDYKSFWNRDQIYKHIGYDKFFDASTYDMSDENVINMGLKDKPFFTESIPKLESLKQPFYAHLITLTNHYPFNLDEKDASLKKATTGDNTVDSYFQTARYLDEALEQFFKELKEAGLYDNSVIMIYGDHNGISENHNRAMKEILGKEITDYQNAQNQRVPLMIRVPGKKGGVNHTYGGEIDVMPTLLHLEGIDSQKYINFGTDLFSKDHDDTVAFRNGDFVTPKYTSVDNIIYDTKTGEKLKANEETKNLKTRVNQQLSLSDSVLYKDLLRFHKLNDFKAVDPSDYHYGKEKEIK
- assayText: thermal shift titration (SYPRO Orange), Hill fit
- appliedConditions: read-out: Apparent KD
- Text: thermal shift titration (SYPRO Orange), Hill fit on eYfnI (YfnI)
pKd: −log10 of the molar value.
quantityMeasured: pKd

INSERT INTO measurements (molecule, valuereported) VALUES
  ('O=P(O)(O)OCC(O)CO (stereo not shown) [GroP]', 2.10);

* * *

- testedSystem: eYfnI (YfnI) (Bacillus subtilis, UniProt Q797B3, T297D)
- Construct: extracellular catalytic domain (borders not given), N-terminal 6His tag removed by AcTEV; E. coli Rosetta; pProEX-eYfnI
- Sequence (Q797B3 215-639 T297D): as the sequence (Q797B3 215-639 T297A) above, with A83D counted along it
- assayText: thermal shift titration (SYPRO Orange), Hill fit
- appliedConditions: read-out: Apparent KD
quantityMeasured: Kd (mM)

INSERT INTO results (compound, quantitymeasured, valuereported) VALUES
  ('O=P(O)(O)OCC(O)CO (stereo not shown) [GroP]', 'Kd', 5.4);
